Cytochrome P450 3A4 (Homo sapiens, UniProt P08684) measurements of AC50, listed per entry.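 Further: CYP3A4 tested as one member of a cytochrome P450 panel screen.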
Sequence (P08684 whole entry): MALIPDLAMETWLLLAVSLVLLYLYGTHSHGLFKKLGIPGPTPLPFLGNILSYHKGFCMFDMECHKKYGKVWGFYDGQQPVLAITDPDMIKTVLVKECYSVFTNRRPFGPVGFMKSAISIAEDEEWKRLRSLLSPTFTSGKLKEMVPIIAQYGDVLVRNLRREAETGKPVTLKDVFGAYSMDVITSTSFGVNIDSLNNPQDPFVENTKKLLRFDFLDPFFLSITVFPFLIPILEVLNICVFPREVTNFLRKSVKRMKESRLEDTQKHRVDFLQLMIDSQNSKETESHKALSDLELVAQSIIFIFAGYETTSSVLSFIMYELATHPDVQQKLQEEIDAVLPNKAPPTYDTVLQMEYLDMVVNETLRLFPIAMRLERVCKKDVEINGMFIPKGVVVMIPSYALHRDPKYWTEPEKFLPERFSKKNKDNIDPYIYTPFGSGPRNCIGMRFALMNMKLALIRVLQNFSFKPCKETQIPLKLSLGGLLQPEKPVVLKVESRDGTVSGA

Please give AC50, item by item, for the list that follows.
1. CCCCn1nnnc1SCC(=O)c1cc(Cl)ccc1OC
2. COc1ccc(C2SCC(=O)Nc3c2c(C)nn3C2CCOC(C)(C)C2)cc1 (centres undefined)
3. CO[C@H]1[C@H](O[C@H]2O[C@@H](C)[C@@H](O[C@@H]3C[C@](C)(O)[C@H](OC(=O)CC(C)C)[C@H](C)O3)[C@@H](N(C)C)[C@@H]2O)[C@@H](CC=O)C[C@@H](C)[C@@H](O)/C=C\C=C/C[C@@H](C)OC(=O)C[C@H]1OC(C)=O
4. CN(CCC#N)C(=O)c1ccc(CNS(=O)(=O)c2ccc(F)cc2)cc1
5. CC(C)CC(C(=O)OCC(=O)Nc1ncc(Cl)cc1Cl)N1C(=O)c2ccccc2C1=O (centres undefined)
6. Cc1noc(C)c1C(=O)N1CCC2(CC1)CCN(c1ccncc1)CC2
7. COc1ccc(-c2nc(C#N)c(N3CCC(C(N)=O)CC3)o2)cc1OC

14.1 µM (inconclusive)
28.2 µM (inconclusive)
12.6 µM (inconclusive)
0.112 µM (inconclusive)
31.6 µM (inconclusive)
3.98 µM (inconclusive)
39.8 µM (inconclusive)

Below is a list of molecules. For each, state its recorded AC50.
1. Cc1ccccc1Cn1c(Cc2ccccc2)nc2ccccc21
2. O=c1c(-c2ccccc2)nc2cnc(N3CCOCC3)nc2n1C[C@H]1CCCO1

["31.6 µM (inconclusive)", "39.8 µM (inconclusive)"]

###

assayProtocol: Trypanosoma cruzi growth suppression in host cells – NIH3T3 host cells, beta-gal luminescence, confirmation (AID 2044);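 further: intracellular parasites grown in NIH/3T3 mouse fibroblasts as host cells; luminescent beta-galactosidase reporter signal from transgenic T. cruzi replicating inside host cells; inhibitors lower the luminescence signal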
Assay type: functional, cell-based
The source made the active and inactive calls.
testReadout: EC50

Record excerpt, results attached:
• CN(C)CCCN(C(=O)CCOc1ccccc1)c1nc2c(F)cccc2s1 = 152 nM (active)
• CC1=C(C(=O)Nc2ccccc2F)C(c2ccsc2)C2=C(O)CC(c3ccccc3)CC2=N1 (configuration not stated) = 3320 nM (active)
• CCOC(=O)c1cnc(-n2nc(C)cc2C)nc1NC1CCCCC1 = 1200 nM (active)
• Cc1ccc(Nc2c(-c3ccccn3)nc3cccc(C)n23)cc1 = 488 nM (active)
• Cc1cc2c(n1-c1ccc(Br)cc1)CC(C)(C)CC2=O = 2050 nM (active)

Working through the 8 compounds below one at a time, give EC50 for each.
1. O=C(NC1CCCCC1)C(c1cccs1)N(C(=O)Cc1c[nH]c2ccccc12)c1ccc(F)cc1 (configuration not stated)
2. CN(C)CCCNc1oc(-c2ccccc2Cl)nc1S(=O)(=O)c1ccc(F)cc1
3. COc1ccc(-n2nc(C)c3c(O)c4c(nc32)CCCC4)cc1
4. O=C1NC(=O)/C(=C\c2ccc(Br)o2)S1
5. CC(=O)N(CCCN(C)C)c1nc2ccc(C)cc2s1
6. COc1ccc(OC)c2sc(N(CCCN(C)C)C(=O)CCS(=O)(=O)c3ccccc3)nc12
7. O=C(Nc1cccc(F)c1)NC1CCN(Cc2ccccc2)CC1
8. c1ccc(Oc2nc(-c3ccccn3)nc3ccccc23)cc1

1. 871 nM (active)
2. 135 nM (active)
3. 210 nM (active)
4. 21700 nM (active)
5. 236 nM (active)
6. 4320 nM (active)
7. 736 nM (active)
8. 3800 nM (active)

Value sought for every listed compound: EC50.
1. CCOc1cc(CNc2ccc(Br)cc2)cc(Br)c1OCC(=O)NC(C)(C)C
2. c1ccc(-c2cc(-c3nnc4n3N=C(c3ccc5ccccc5c3)CS4)n[nH]2)cc1

1. 1910 nM (active)
2. 1630 nM (active)

Could you report EC50 for every entry in the following list?
1. Nc1nc(O)c2[nH]nnc2n1 [8-AZAGUANINE]
2. COc1ccc(Nc2nc(NCC3CCCO3)c3ccccc3n2)c(OC)c1 (configuration not stated)

< 100 nM (active)
465 nM (active)

###

targetEntity: UniProt P49327
Sequence (P49327 whole entry): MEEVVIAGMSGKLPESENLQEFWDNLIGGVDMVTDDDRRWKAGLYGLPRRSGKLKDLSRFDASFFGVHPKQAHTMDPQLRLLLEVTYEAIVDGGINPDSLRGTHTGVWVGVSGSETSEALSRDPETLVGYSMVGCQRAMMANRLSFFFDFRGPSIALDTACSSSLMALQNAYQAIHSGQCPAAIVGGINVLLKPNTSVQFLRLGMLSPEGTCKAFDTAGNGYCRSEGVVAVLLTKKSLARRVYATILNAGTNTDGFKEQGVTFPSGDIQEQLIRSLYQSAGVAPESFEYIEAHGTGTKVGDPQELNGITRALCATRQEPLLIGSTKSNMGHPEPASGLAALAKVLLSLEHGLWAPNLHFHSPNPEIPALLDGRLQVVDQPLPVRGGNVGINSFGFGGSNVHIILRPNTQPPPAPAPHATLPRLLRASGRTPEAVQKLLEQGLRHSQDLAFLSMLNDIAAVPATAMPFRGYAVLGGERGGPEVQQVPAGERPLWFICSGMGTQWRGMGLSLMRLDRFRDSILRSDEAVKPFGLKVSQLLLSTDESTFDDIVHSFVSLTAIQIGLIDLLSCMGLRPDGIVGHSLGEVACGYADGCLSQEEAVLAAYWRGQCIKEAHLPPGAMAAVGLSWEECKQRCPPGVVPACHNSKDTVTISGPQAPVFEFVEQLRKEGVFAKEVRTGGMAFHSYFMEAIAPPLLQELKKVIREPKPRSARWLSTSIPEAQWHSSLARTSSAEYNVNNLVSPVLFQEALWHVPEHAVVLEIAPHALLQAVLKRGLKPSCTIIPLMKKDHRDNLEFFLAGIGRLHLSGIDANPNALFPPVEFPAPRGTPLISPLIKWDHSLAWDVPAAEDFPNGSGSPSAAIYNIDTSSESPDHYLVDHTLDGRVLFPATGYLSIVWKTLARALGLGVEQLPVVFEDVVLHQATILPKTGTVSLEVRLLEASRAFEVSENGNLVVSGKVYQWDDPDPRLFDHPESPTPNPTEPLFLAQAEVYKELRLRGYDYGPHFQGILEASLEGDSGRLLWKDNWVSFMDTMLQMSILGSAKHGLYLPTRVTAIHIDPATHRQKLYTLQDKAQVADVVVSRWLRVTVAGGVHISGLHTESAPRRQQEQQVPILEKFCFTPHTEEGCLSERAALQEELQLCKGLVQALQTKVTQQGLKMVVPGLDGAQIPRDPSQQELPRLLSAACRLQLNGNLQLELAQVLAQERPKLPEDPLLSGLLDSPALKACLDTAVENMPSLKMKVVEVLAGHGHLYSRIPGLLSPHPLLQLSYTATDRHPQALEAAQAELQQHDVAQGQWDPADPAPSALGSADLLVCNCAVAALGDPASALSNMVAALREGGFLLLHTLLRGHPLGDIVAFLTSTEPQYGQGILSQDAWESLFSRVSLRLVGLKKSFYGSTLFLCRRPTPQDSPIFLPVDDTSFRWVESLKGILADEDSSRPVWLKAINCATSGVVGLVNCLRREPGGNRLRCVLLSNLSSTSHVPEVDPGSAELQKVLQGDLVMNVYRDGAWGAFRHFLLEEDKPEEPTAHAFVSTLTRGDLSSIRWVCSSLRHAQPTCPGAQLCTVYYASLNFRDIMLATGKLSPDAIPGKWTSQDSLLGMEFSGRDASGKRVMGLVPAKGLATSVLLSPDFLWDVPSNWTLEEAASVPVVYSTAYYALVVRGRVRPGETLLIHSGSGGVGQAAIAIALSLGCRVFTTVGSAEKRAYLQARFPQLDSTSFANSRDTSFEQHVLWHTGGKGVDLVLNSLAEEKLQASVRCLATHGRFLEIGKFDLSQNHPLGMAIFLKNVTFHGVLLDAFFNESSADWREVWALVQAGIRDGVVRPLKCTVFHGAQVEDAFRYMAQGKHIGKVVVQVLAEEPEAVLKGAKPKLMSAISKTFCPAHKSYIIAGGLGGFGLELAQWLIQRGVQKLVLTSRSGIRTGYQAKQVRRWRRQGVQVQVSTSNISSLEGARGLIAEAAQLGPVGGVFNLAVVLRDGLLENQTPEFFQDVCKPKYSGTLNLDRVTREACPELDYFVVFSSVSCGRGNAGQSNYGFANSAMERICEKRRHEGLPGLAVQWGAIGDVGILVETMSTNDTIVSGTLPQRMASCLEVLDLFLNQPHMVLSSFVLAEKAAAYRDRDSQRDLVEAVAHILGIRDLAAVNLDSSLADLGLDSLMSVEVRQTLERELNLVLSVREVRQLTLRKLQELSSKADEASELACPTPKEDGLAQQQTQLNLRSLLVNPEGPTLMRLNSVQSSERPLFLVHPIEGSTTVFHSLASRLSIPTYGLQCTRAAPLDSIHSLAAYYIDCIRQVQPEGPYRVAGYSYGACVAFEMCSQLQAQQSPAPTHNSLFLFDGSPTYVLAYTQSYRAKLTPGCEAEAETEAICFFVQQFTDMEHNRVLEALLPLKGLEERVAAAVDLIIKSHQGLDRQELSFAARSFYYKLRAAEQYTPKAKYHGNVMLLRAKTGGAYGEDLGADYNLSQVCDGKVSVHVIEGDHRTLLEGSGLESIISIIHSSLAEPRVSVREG
assayProtocol: inhibition of human FAS-TE enzyme activity – biochemical, endpoint fluorescence intensity, uHTS hits, dose response (AID 624327);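 further: fluorescence from hydrolysis of an O-methyl fluorescein acyl ester substrate by the enzyme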
Assay type: functional
Activity calls are given as the source filed them.
Return exactly one item of Yes (active), No (inactive)

• O=[N+]([O-])c1ccc(Cl)c(S(=O)(=O)Nc2ccc(-c3ccc(N4CCCC4)nn3)cc2)c1 = Yes
• O=C(Nn1c(-c2ccc(Br)cc2)nc2ccccc2c1=O)c1ccc([N+](=O)[O-])cc1 = Yes
• CC1CCc2c(C(=O)Oc3cccc(-n4cnnn4)c3)csc2C1 (stereo not given) = Yes
• O=C(NCCC1=CCCCC1)c1ccc(Cl)c([N+](=O)[O-])c1 = Yes
• CCCOc1ccc(NC(=O)CC2C(=O)N(CC)C(=S)N2Cc2cccs2)cc1 (stereo not given) = Yes

In this assay, the call recorded for CC(=O)c1cccc(-c2ccnc3c2CC(C(=O)Nc2cccc(OC(F)(F)F)c2)O3)c1 (stereo not given) was what?
Yes

###

Provide the reported IC50 of each item.
targetEntity: Eukaryotic translation initiation factor 4E (Mus musculus, UniProt P63073)
Sequence (P63073 whole entry): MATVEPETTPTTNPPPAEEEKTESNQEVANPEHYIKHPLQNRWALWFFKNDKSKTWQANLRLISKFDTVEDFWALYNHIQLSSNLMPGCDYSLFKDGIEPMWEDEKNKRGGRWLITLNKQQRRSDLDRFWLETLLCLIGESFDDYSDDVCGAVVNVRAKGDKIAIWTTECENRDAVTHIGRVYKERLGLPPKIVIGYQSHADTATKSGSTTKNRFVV
assayProtocol: blockers of eIF4G binding by eIF4E – biochemical, TR-FRET, dose response (AID 855);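 further: potency for disrupting eIF4E binding to eIF4GI seen as loss of FRET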
Type: functional
Active and inactive are the calls of the source.

Count: 4. Required value per item: IC50.
1. COc1cc(-c2[nH]ncc2CN2CCN(Cc3cccs3)CC2)cc(OC)c1OC
2. CC(=O)c1cccc(NC(=O)c2nc(-c3ccccc3)oc2C)c1
3. Cc1ccc(C(C)C)c(OCc2nc(-c3nonc3N)no2)c1
4. Cc1c(Cl)cccc1NC(=O)CCC(=O)NNC(=O)c1ccccc1Cl

1: 50 µM (inactive); 2: 50 µM (inactive); 3: > 64 µM (inactive); 4: > 64 µM (inactive)

###

targetEntity: UniProtKB Q9UM73
Sequence (Q9UM73 whole entry): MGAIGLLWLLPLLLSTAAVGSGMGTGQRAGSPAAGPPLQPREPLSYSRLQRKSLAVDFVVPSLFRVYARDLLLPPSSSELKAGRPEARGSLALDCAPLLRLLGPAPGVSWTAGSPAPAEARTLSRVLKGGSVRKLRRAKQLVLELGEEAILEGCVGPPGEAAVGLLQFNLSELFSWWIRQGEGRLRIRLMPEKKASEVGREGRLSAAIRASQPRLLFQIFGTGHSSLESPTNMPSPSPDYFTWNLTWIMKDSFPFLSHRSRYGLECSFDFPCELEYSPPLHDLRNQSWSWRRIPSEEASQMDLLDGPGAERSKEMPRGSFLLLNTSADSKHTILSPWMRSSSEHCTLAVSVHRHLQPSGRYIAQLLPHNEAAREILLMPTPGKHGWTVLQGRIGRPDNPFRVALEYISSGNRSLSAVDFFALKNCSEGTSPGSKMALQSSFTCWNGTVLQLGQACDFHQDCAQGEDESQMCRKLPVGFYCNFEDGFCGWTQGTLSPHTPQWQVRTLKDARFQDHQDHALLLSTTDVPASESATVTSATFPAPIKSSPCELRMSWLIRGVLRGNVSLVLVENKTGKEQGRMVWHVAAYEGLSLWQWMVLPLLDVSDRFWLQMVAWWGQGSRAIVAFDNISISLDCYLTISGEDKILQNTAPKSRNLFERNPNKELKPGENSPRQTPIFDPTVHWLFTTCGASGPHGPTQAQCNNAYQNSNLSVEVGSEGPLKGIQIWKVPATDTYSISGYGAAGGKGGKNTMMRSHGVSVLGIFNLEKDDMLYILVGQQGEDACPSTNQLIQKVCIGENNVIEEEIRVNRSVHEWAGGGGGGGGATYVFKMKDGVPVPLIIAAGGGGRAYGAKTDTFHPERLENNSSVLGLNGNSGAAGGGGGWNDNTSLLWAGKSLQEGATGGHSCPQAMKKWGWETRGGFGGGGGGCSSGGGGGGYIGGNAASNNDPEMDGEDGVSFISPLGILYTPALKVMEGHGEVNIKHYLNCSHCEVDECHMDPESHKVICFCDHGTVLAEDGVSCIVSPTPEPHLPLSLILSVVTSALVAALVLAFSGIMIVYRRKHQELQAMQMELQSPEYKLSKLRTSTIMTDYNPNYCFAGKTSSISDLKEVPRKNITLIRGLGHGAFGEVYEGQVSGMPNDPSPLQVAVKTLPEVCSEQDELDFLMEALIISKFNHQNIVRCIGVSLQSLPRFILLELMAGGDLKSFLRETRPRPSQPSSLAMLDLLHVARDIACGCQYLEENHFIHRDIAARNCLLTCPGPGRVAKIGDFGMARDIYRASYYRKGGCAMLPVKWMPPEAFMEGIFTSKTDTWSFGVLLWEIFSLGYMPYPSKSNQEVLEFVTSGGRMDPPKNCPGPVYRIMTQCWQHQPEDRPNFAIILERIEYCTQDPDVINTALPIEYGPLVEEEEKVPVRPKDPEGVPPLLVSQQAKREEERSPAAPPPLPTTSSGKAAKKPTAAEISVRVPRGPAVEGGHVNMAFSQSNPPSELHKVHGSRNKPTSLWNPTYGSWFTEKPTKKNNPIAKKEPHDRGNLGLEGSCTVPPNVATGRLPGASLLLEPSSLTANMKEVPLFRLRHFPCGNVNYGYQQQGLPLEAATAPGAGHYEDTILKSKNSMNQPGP
Assay type: functional
Activity calls are given as the source filed them.
API: response.call in active, inactive

* COc1ccc(C2=NNc3cccc4c(OC)ccc2c34)cc1OC | active

Entry Cc1ccc(C)c(NC(=O)c2cc(-c3ccco3)nc3ccccc23)c1 : call = ?
inactive

// param item: CN1CCC(c2c(O)cc(O)c3c(=O)cc(-c4ccccc4Cl)oc23)C(O)C1 (centres undefined) ; yields the recorded call
active

Hey, what did the test say about CCN1CCN(c2ccc(Nc3ncc(C(F)(F)F)c(Nc4ccc5[nH]ncc5c4)n3)cc2)CC1 ?
active

###

assayProtocol: cells
Format: functional
Calls of active or inactive are those of the source.
testReadout: IC50

* O=[N+]([O-])c1ccc(CNc2cccc(Cl)c2)s1 | 48.6 µM (active)

Below are 3 compounds. Give each one its IC50.
1. O=c1cc(-c2ccccc2Cl)oc2ccc([N+](=O)[O-])c(O)c12
2. CN1CCN(c2ccc(NC(=O)c3ccc(-c4ccc(Br)cc4)o3)cc2)CC1
3. COc1ccc(OC(=O)CCc2c[nH]c3ccccc23)cc1

12.1 µM (active)
2.59 µM (active)
0.48 µM (active)

###

targetEntity: Histone-lysine N-methyltransferase NSD2 (Homo sapiens, UniProt O96028)
Sequence (O96028 whole entry): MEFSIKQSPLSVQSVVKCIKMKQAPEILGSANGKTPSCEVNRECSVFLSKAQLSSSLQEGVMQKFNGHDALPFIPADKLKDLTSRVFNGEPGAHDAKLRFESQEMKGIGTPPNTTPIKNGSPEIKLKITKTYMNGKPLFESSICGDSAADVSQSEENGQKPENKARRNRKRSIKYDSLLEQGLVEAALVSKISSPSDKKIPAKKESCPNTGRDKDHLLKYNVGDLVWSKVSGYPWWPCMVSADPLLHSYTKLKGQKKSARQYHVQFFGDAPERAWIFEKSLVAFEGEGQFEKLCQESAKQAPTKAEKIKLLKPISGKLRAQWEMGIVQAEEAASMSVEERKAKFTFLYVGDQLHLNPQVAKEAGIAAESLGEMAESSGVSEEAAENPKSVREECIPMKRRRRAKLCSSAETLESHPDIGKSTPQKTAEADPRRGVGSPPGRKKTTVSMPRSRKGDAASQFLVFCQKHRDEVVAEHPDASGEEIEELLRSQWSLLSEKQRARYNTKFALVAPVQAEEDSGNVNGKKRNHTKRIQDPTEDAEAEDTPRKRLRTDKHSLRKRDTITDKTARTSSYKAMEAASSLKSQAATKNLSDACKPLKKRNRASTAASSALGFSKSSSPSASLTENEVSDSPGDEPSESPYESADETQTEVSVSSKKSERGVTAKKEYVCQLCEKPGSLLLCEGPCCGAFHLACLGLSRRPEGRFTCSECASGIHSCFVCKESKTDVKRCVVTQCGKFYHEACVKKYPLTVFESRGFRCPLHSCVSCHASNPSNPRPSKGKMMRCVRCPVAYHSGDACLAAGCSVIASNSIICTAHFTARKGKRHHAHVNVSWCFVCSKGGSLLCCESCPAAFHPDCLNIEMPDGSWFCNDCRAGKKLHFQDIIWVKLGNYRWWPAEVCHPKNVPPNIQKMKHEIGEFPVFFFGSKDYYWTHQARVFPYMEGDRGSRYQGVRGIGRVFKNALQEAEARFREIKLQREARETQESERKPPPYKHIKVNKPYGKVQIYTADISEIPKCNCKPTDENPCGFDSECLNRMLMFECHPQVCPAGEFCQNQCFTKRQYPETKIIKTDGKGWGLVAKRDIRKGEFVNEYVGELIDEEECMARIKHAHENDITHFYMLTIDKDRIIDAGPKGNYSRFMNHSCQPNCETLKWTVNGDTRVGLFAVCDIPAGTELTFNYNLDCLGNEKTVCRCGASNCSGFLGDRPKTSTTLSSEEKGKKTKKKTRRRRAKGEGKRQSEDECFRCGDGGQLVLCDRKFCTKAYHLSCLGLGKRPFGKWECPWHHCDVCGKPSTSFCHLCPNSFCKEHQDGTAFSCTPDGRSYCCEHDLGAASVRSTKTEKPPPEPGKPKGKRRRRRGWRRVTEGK
Type: biochemical
The source made the active and inactive calls.
Response enum: 1.0 = active, 0.0 = inactive

• CN(c1ccc(O)cc1)c1ccc([N+](=O)[O-])c2nonc12 = 0.0
• Cc1nc(C)c(C(=O)Nc2ncc([N+](=O)[O-])s2)o1 = 0.0

Could you kindly confirm the outcome this assay logged for CC(/C=C1\SC(=S)N(NS(=O)(=O)c2ccc(C)cc2)C1=O)=C\c1ccccc1 ?
1.0

Answer briefly: the call reported for CCN(CC)CCCn1c(=S)[nH]c2ncccc2c1=O in this assay.
1.0

Recorded test outcome, item Cc1cc(C)nc(NS(=O)(=O)c2ccc(-n3cccc3)cc2)n1
0.0

Please share the test call associated with O=C1C(Cl)=C(Oc2ccccc2)C(=O)c2ccccc21 .
1.0
